# Tested on: Rattus norvegicus
# procedureSummary: Anti-inflammatory activity in Rattus norvegicus Wistar (rat) assessed as inhibition of carrageenan-induced paw edema at 20 mg/kg, ip administered 30 min post carrageenan-challenge measured after 2.5 hr relative to control
# Assay type: functional
# reportedConditions: route intraperitoneal
Mark class 1 for reported inhibition in vivo at 20 mg/kg of 30% or greater; mark class 0 for anything smaller.

See these solved cases before continuing.
>>> df
                                smilesentry  qualitativelabel
0     CCCc1nnc2sc(-c3c[nH]nc3-c3ccccc3)nn12           class 1
1  CCCc1nnc2sc(-c3c[nH]nc3-c3ccc(Cl)cc3Cl)nn12           class 0
2  CCc1nnc2sc(-c3c[nH]nc3-c3ccc(Cl)cc3)nn12           class 1
3  CCc1nnc2sc(-c3c[nH]nc3-c3ccc(OC)cc3)nn12           class 0
4   CCc1nnc2sc(-c3c[nH]nc3-c3ccc(F)cc3)nn12           class 0

(Q) inhibition in vivo at 20 mg/kg >= 30% for CCc1nnc2sc(-c3c[nH]nc3-c3ccc(Cl)cc3Cl)nn12 ?
(A) class 0

(Q) Tell me whether inhibition in vivo at 20 mg/kg is at least 30% here: CCCc1nnc2sc(-c3c[nH]nc3-c3ccc(OC)cc3)nn12
(A) class 0

(Q) Item CCCc1nnc2sc(-c3c[nH]nc3-c3ccc(F)cc3)nn12 with inhibition in vivo at 20 mg/kg of 30% or above?
(A) class 0

(Q) Identify whether the reported inhibition in vivo at 20 mg/kg of the following compound is 30% or greater: CCCc1nnc2sc(-c3c[nH]nc3-c3ccc(Cl)cc3)nn12
(A) class 1

Source of measurements: ChEMBL document CHEMBL3046807
